target_or_system: KAT2B (Homo sapiens, UniProt Q92831)
Sequence (Q92831 whole entry): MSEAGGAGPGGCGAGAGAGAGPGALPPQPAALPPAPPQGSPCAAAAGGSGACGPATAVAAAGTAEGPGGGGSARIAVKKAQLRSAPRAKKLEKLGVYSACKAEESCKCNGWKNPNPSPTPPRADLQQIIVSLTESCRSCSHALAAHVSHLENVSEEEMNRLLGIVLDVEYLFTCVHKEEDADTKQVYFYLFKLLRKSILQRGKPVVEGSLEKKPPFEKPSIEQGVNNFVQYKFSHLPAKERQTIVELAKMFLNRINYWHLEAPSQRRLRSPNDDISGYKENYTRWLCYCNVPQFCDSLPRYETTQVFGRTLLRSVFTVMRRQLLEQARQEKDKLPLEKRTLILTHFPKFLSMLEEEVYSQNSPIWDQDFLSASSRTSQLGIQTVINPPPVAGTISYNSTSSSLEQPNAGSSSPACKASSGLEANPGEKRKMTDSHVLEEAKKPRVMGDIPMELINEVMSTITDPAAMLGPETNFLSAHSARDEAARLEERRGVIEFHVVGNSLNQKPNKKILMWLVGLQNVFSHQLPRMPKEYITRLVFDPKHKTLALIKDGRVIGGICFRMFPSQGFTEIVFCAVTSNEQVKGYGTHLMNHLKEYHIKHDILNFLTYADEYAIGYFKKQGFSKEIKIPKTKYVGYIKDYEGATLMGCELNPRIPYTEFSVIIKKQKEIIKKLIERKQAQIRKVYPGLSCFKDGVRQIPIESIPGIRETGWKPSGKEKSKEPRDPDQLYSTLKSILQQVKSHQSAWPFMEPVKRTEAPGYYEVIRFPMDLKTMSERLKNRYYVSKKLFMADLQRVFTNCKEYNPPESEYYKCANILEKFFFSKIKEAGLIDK
method_summary: KAT2B degradation, Western Blot (Jess), NCI-H1048 cells
Format: cell-based
Parameters: degrader, Western blot (Jess)
condition_label: NCI-H1048 cells, KAT2B, 24 h, Western Blot, vs DMSO; read-out: KAT2B NCI-H1048 DC50
Excerpt: MOLM-13 cells or NCI-H1048 cells were used for Western Blot analysis of KAT2A degradation. KAT2B degradation can be measured in a similar manner with NCI-H1048 cells. […] MOLM-13 cells or NCI-H1048 cells were washed with PBS, then lysed with RIPA buffer containing 1×protease and phosphatase inhibitors (SantaCruz Biotechnologies Cat #sc-24948A). […] Protein was quantified via Bradford assay. […] Signal was detected by chemiluminescence. […]
assay_metric: DC50

Check out these entries, answers already filled in.
CN1C[C@H](Nc2cnn(C)c(=O)c2Cl)C[C@H](c2ccc(C(=O)N3CCC(c4ccc5c(C6CCC(=O)NC6=O)nccc5c4)CC3)cc2)C1 (some centres unmarked)
> 30 nM
Cc1cc(N2CCC3(CCN(C(=O)c4ccc([C@H]5C[C@@H](Nc6cnn(C)c(=O)c6Cl)CN(C)C5)cc4)CC3)CC2)cc(F)c1C1CCC(=O)NC1=O (some centres unmarked)
< 1 nM
Cc1c(N[C@@H]2C[C@H](c3ccc(CN4CCN(c5ccnc(C6CCC(=O)NC6=O)c5)CC4)cc3)CN(C)C2)cnn(C)c1=O (some centres unmarked)
> 30 nM
Cc1cc(N2CCC3(CCN(C(=O)c4ccc([C@H]5C[C@@H](Nc6cnn(C)c(=O)c6Cl)CN(C)C5)cc4)CC3)CC2)ccc1N1CCC(=O)NC1=O
< 1 nM
Cn1ncc(N[C@@H]2C[C@H](c3ccc(C(=O)N4CCC5(CC4)CCN(c4ccc(C6CCC(=O)NC6=O)cc4)CC5)cc3)CN(C3CC3)C2)c(Br)c1=O (some centres unmarked)
> 30 nM

// query Reported DC50 for Cc1c(C2CCC(=O)NC2=O)ccc(N2CCC3(CCN(C(=O)c4ccc([C@H]5C[C@@H](Nc6cnn(C)c(=O)c6C)CN(C)C5)cc4)CC3)CC2)c1F (some centres unmarked) : what is it?
// result 1 to 30 nM

// query // repeat for Cc1ncsc1-c1ccc(CNC(=O)[C@@H]2C[C@@H](O)CN2C(=O)[C@@H](NC(=O)CCCCNC(=O)c2ccc([C@H]3C[C@@H](Nc4cnn(C)c(=O)c4Br)CN(C)C3)cc2)C(C)(C)C)cc1 and report
// result > 30 nM

// query // repeat for COc1cc(C2CCC(=O)NC2=O)ccc1N1CCC2(CCN(C(=O)c3ccc([C@H]4C[C@@H](Nc5cnn(C)c(=O)c5C)CN(C)C4)cc3)CC2)CC1 (some centres unmarked) and report
// result 1 to 30 nM

// query // repeat for CN1C[C@H](Nc2cnn(C)c(=O)c2Br)C[C@H](c2ccc(CN3CCN(c4cc(C5CCC(=O)NC5=O)ccn4)CC3)cc2)C1 (some centres unmarked) and report
// result > 30 nM

// query // repeat for CN1C[C@H](Nc2cnn(C)c(=O)c2Cl)C[C@H](c2ccc(C(=O)N3CCC4(CC3)CCN(c3ccc(N5CCC(=O)NC5=O)c(F)c3)CC4)cc2)C1 and report
// result < 1 nM

// query // repeat for CN1C[C@H](Nc2cnn(C)c(=O)c2Cl)C[C@H](c2ccc(CN3CCN(c4ccc5c(c4)CN(C4CCC(=O)NC4=O)C5=O)CC3)cc2)C1 (some centres unmarked) and report
// result < 1 nM

----------
target_or_system: UniProtKB Q92830
Sequence (Q92830 whole entry): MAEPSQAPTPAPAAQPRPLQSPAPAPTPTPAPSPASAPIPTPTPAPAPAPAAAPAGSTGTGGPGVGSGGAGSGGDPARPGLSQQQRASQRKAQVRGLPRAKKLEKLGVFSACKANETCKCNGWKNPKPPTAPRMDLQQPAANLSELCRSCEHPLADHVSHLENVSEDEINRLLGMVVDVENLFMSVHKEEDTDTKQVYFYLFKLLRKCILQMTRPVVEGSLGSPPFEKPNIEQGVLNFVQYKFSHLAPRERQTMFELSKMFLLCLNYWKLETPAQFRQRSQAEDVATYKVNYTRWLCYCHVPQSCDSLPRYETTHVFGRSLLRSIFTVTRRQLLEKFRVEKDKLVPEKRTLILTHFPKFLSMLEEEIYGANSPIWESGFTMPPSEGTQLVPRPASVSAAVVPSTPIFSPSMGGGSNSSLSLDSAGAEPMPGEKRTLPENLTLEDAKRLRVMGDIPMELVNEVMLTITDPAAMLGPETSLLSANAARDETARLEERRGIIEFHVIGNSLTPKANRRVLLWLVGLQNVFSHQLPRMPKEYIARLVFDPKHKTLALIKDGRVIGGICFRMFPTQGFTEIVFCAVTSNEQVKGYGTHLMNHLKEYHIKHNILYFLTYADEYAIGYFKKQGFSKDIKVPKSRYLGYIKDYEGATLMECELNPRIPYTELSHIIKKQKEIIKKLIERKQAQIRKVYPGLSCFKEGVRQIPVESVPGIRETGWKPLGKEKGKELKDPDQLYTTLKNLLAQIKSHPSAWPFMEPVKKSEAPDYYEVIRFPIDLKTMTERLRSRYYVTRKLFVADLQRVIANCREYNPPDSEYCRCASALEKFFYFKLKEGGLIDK
method_summary: KAT2A degradation, Western Blot (Jess), MOLM-13 cells
Assay type: cell-based
Set-up: degrader, Western blot
condition_label: MOLM-13 cells, KAT2A, 24 h, Western Blot, vs DMSO; read-out: KAT2A MOLM-13 DC50
# key: entry, value: DC50

Check out these entries, answers already filled in.
CN1C[C@H](Nc2cnn(C)c(=O)c2Br)C[C@H](c2ccc(C(=O)N3CCN(c4ccc(F)c(C5CCC(=O)NC5=O)c4)CC3)cc2)C1 (stereo partly drawn) [Compound 153]
1 to 30 nM
CN1C[C@H](Nc2cnn(C)c(=O)c2Br)C[C@H](c2ccc(CN3CCN(c4ccc5c(c4)CN(C4CCC(=O)NC4=O)C5=O)CC3)cc2)C1 (stereo partly drawn)
< 1 nM
CN1C[C@H](Nc2cnn(C)c(=O)c2Br)C[C@H](c2ccc(C(=O)N3CCC4(CC3)CCN(c3cccc(C5CCC(=O)NC5=O)c3)CC4)cc2)C1 (stereo partly drawn)
< 1 nM
CN1C[C@H](Nc2cnn(C)c(=O)c2Br)C[C@H](c2ccc(CN3CC4(C3)CN(c3cccc(C5CCC(=O)NC5=O)c3)C4)cc2)C1 (stereo partly drawn)
> 30 nM
CN1C[C@H](Nc2cnn(C)c(=O)c2Br)C[C@H](c2ccc(C(=O)N3CCN(Cc4ccc(C(=O)Nc5ccc6c(c5)C(=O)N(C5CCC(=O)NC5=O)C6=O)cc4)CC3)cc2)C1 (stereo partly drawn)
1 to 30 nM

// next entry
// query Reported DC50 for CN1C[C@H](Nc2cnn(C)c(=O)c2Br)C[C@H](c2ccc(C(=O)N3CC4(C3)CN(c3cccc(C5CCC(=O)NC5=O)c3)C4)cc2)C1 (stereo partly drawn) : what is it?
// result 1 to 30 nM

----------
target_or_system: UniProt:Q92830
method_summary: KAT2A degradation, Western Blot (Jess), NCI-H1048 cells
Assay type: cell-based
Design: degrader, Western blot (Jess)
condition_label: NCI-H1048 cells, KAT2A, 24 h, Western Blot, vs DMSO; read-out: KAT2A NCI-H1048 DC50
# key: entry, value: DC50

CN1C[C@H](Nc2cnn(C)c(=O)c2Cl)C[C@H](c2ccc(CN3CCN(c4ccc5c(c4)C(=O)N(C4CCC(=O)NC4=O)C5=O)CC3)cc2)C1 (stereo partly shown) [Compound 175]
< 1 nM
CN1C[C@H](Nc2cnn(C)c(=O)c2Br)C[C@H](c2ccc(C(=O)N3CCC4(CC3)CCN(c3ccc5c(N6CCC(=O)NC6=O)cncc5c3)CC4)cc2)C1 [Compound 375]
1 to 30 nM
CN1C[C@H](Nc2cnn(C)c(=O)c2Br)C[C@H](c2ccc(C(=O)N3CCC4(CC3)CCN(c3ccc(N5CCC(=O)NC5=O)c(F)c3)CC4)cc2)C1 [Compound 397]
< 1 nM
Cc1cc(C2CCC(=O)NC2=O)cnc1N1CCC2(CCN(C(=O)c3ccc([C@H]4C[C@@H](Nc5cnn(C)c(=O)c5Br)CN(C)C4)cc3)CC2)CC1 (stereo partly shown) [Compound 274]
< 1 nM
C[C@H](Nc1nn(C)c(=O)c2ccccc12)[C@H](c1ccc(C(=O)N2CCC3(CC2)CCN(c2ccc(C4CCC(=O)NC4=O)cc2)CC3)cc1)N(C)C (stereo partly shown) [Compound 432]
< 1 nM
CN1C[C@H](Nc2cnn(C)c(=O)c2Br)C[C@H](c2ccc(CN3CCN(c4cccc(OC5CCC(=O)NC5=O)c4)CC3)cc2)C1 (stereo partly shown) [Compound 435]
> 30 nM
CN1C[C@H](Nc2cnn(C)c(=O)c2Br)C[C@H](c2ccc(CN3CCN(c4ccc(F)c(C5CCC(=O)NC5=O)c4)CC3)cc2)C1 (stereo partly shown) [Compound 152]
< 1 nM
CN1C[C@H](Nc2cnn(C)c(=O)c2Cl)C[C@H](c2ccc(C(=O)N3CCC4(CC3)CCN(c3cnn(C5CCC(=O)NC5=O)c3)CC4)cc2)C1 (stereo partly shown) [Compound 207]
< 1 nM

// next entry
// query Reported DC50 for CN1C[C@H](Nc2cnn(C)c(=O)c2Cl)C[C@H](c2ccc(C(=O)N3CCC4(CCC(c5ccc(C6CCC(=O)NC6=O)cc5F)CC4)CC3)cc2)C1 (stereo partly shown) [Compound 231] : what is it?
// result < 1 nM

----------
# key: entry, value: DC50
target_or_system: UniProtKB Q92831
method_summary: KAT2B degradation, Western Blot (Jess), NCI-H1048 cells
Format: cell-based
Set-up: degrader, Western blot (Jess)
condition_label: NCI-H1048 cells, KAT2B, 24 h, Western Blot, vs DMSO; read-out: KAT2B NCI-H1048 DC50

// query Reported DC50 for CN1C[C@H](Nc2cnn(C)c(=O)c2Cl)C[C@H](c2ccc(CN3CCN(c4ccc5c(c4)C(=O)N(C4CCC(=O)NC4=O)C5=O)CC3)cc2)C1 (some centres unmarked) : what is it?
// result 0.001 to 0.03 µM

// query // repeat for CN1C[C@H](Nc2cnn(C)c(=O)c2Cl)C[C@H](c2ccc(C(=O)N3CCC4(CC3)CCN(c3ccc(C5CCC(=O)NC5=O)c(OC(F)(F)F)c3)CC4)cc2)C1 (some centres unmarked) and report
// result > 0.03 µM

// query // repeat for Cc1cc(N2CCC3(CCN(C(=O)c4ccc([C@H]5C[C@@H](Nc6c(F)nn(C)c(=O)c6Br)CN(C)C5)cc4)CC3)CC2)ccc1C1CCC(=O)NC1=O (some centres unmarked) and report
// result 0.001 to 0.03 µM

// query // repeat for Cc1cc(N2CCC3(CCN(c4ccc([C@H]5C[C@@H](Nc6cnn(C)c(=O)c6Br)CN(C)C5)cc4)CC3)CC2)ccc1C1CCC(=O)NC1=O (some centres unmarked) and report
// result 0.001 to 0.03 µM

// query // repeat for Cc1cc(N2CCC3(CCN(C(=O)c4ccc([C@H]5C[C@@H](Nc6cnn(C)c(=O)c6Br)CN(C)C5)cc4)CC3)CC2)ccc1N1CCC(=O)NC1=O and report
// result < 0.001 µM
